target: chemokine receptor CCR3 (Homo sapiens, UniProt P51677); test: Affinity to chemokine receptor CCR3; format: binding; details: at a concentration of 10 μM
Sequence (P51677 whole entry): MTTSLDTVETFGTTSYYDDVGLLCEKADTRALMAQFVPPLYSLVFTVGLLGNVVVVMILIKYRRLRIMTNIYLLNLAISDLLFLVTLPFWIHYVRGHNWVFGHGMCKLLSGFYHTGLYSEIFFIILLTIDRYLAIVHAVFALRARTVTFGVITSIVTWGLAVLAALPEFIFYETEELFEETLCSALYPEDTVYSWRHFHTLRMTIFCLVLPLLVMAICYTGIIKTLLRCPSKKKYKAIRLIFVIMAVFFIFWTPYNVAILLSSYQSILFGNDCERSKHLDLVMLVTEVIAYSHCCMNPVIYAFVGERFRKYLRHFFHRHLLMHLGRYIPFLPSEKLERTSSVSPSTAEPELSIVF
MEASURE: affinity to chemokine receptor CCR3 (%)

{"MOLECULE": "Cc1nc(OCC(=O)N(C)C2CCN(Cc3ccc(F)cc3)CC2)nc(C)c1N [Compound 85]", "RECORDED_VALUE": 2.4}
{"MOLECULE": "CNc1nccnc1OCC(=O)N(C)C1CCN(Cc2ccccc2)CC1.Cl [Compound 130]", "RECORDED_VALUE": 3.5}
{"MOLECULE": "Cc1nc(OCC(=O)N(C)C2CCN(Cc3ccccc3)CC2)nc(C)c1N [Compound 65]", "RECORDED_VALUE": 0.0}
{"MOLECULE": "Cc1cnc(Cl)nc1NCC(=O)N(C)C1CCN(Cc2ccccc2)CC1 [Compound 109]", "RECORDED_VALUE": 16}
{"MOLECULE": "CN(C(=O)COc1ccc(Cl)nn1)C1CCN(C(=O)C2CC2)CC1 [Compound 135]", "RECORDED_VALUE": 22}
{"MOLECULE": "Cc1nc(OCC(=O)N(C)C2CCN(Cc3cc(F)c(F)c(F)c3)CC2)nc(C)c1N [Compound 91]", "RECORDED_VALUE": 18}
{"MOLECULE": "Cc1nc(OCC(=O)NC2CCN(C(=O)c3ccc(F)cc3)CC2)nc(C)c1N [Compound 102]", "RECORDED_VALUE": 0.0}
